Reported values of MIC for individual entries
- Test system: Escherichia coli, A15119
- assay notes: In vitro antibacterial activity (MIC), serial 2-fold dilution
- Assay type: cell-based
- condition info: Escherichia coli A15119; Mueller-Hinton; 37°C, 17 h; read-out: Antibacterial Activity MIC E. coli
Report the value in ng/mL with no unit label.

These solved cases illustrate the format of a correct answer.
C[C@@H](O)[C@H]1C(=O)N2C(C(=O)O)=C(SCc3cn(C)nn3)[C@H](CCCNC=N)[C@H]12 [Example 94]    8
C[C@@H](O)[C@H]1C(=O)N2C(C(=O)O)=C(SCCC#N)[C@H](CCNC(=N)N)[C@H]12 [Example 73]    8
C[C@@H](O)[C@H]1C(=O)N2C(C(=O)O)=C(SCc3cccnc3)[C@H](CCN)[C@H]12 [Example 24]    16
C[C@@H](O)[C@H]1C(=O)N2C(C(=O)O)=C(SCc3csnn3)[C@H](CCNC(=N)N)[C@H]12 [Example 40]    8
C[C@@H](O)[C@H]1C(=O)N2C(C(=O)O)=C(SCCC#N)[C@H](CCCCNC=N)[C@H]12 [Example 19]    4

Enquiry: Please report the measured MIC for C[C@@H](O)[C@H]1C(=O)N2C(C(=O)O)=C(SCCC#N)[C@H](CCCCCN)[C@H]12 [Example 121] tested on Escherichia coli, A15119.
Return: 4

Enquiry: Please report the measured MIC for C[C@@H](O)[C@H]1C(=O)N2C(C(=O)O)=C(SCCC#N)[C@H](CCN3CCOCC3)[C@H]12 [Example 49] tested on Escherichia coli, A15119.
Return: 30
